Every entry's value here was drawn from patent US11034679B2.

- tested system: MOR (Homo sapiens, UniProt P35372)
- Sequence (P35372 whole entry): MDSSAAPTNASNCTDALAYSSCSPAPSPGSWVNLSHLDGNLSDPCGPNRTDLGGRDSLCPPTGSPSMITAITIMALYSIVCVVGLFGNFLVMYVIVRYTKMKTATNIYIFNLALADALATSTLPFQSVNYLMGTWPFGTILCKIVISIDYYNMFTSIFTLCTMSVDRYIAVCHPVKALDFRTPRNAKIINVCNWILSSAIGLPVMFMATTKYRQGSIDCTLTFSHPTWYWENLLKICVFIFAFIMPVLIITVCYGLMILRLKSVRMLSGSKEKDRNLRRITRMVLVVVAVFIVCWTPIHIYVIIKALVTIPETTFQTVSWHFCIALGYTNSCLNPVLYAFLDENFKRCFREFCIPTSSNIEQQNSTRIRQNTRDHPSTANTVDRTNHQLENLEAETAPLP
- Sequence (P32121 whole entry partner): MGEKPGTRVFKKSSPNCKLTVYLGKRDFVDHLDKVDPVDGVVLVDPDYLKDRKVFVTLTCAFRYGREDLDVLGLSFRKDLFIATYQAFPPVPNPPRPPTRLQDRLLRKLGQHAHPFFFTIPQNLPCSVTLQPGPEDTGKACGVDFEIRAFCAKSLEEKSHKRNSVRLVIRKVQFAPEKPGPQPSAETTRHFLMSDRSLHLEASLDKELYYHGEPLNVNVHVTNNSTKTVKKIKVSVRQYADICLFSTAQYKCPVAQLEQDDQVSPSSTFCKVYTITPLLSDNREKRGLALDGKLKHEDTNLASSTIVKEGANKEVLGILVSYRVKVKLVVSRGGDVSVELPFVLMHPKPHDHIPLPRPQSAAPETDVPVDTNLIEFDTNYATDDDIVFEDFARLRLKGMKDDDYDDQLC
- test description: cell-based
- Set-up: host or cells: CHO-K1 OPRM1 β-arrestin-2 cells
pEC50: −log10 of the molar value.
Quick rule: pEC50 of at least 7 means rule met, below that means rule not met.

chemical structure | class
COC(=O)[C@@H]1C=C(OC(=O)c2ccc3ccoc3c2)C(=O)[C@H]2[C@@]1(C)CC[C@H]1C(=O)O[C@H](c3ccoc3)C[C@]21C | rule met
COC(=O)[C@@H]1C=C(OC(=O)c2cccc(C(N)=O)c2)C(=O)[C@H]2[C@@]1(C)CC[C@H]1C(=O)O[C@H](c3ccoc3)C[C@]21C | rule not met
COC(=O)[C@@H]1C=C(OC(=O)c2ccc(C(N)=O)cc2)C(=O)[C@H]2[C@@]1(C)CC[C@H]1C(=O)O[C@H](c3ccoc3)C[C@]21C | rule met
COC(=O)[C@@H]1C=C(OC(=O)c2ccc(CO)cc2)C(=O)[C@H]2[C@@]1(C)CC[C@H]1C(=O)O[C@H](c3ccoc3)C[C@]21C | rule met
COC(=O)[C@@H]1C=C(OC(=O)c2ccc3occc3c2)C(=O)[C@H]2[C@@]1(C)CC[C@H]1C(=O)O[C@H](c3ccoc3)C[C@]21C | rule not met
